Exercise: for every item that follows, state its recorded Hepatotoxicity (time to onset).
Method notes: Times to onset, minimal and maximal, observed in the indexed observations. [column 'DELAI' in source]
Condition summary: human

Consider the compound shown here: CN[C@H](CC(C)C)C(=O)N[C@H]1C(=O)N[C@@H](CC(N)=O)C(=O)N[C@H]2C(=O)N[C@H]3C(=O)N[C@H](C(=O)N[C@H](C(=O)O)c4cc(O)cc(O)c4-c4cc3ccc4O)[C@H](O)c3ccc(c(Cl)c3)Oc3cc2cc(c3O[C@@H]2O[C@H](CO)[C@@H](O)[C@H](O)[C@H]2O[C@H]2C[C@](C)(N)[C@H](O)[C@H](C)O2)Oc2ccc(cc2Cl)[C@H]1O [VANCOMYCIN] What is its recorded Hepatotoxicity (time to onset)?
4 days

Now this one: Cc1ccc(-c2cc(C(F)(F)F)nn2-c2ccc(S(N)(=O)=O)cc2)cc1 [CELECOXIB]
2 days - 3 weeks

Cool, now CSc1ccc2c(c1)N(CCC1CCCCN1C)c1ccccc1S2 (stereo unspecified) [THIORIDAZINE]
1 week - 1 year

What about Cc1noc(NS(=O)(=O)c2ccc(N)cc2)c1C [SULFISOXAZOLE] ?
2 days - 6 days

Please answer likewise for C[C@@H]1[C@H](O)[C@@H](C)/C=C/C=C/C=C/C=C/C=C/C=C/C=C/[C@H](O[C@@H]2O[C@H](C)[C@@H](O)[C@H](N)[C@@H]2O)C[C@@H]2O[C@](O)(C[C@@H](O)C[C@@H](O)[C@H](O)CC[C@@H](O)C[C@@H](O)CC(=O)O[C@H]1C)C[C@H](O)[C@H]2C(=O)O [AMPHOTERICIN B]
2 days - 4 months

Queued: Fc1ccc([C@@H]2CCNC[C@H]2COc2ccc3c(c2)OCO3)cc1 [PAROXETINE]
6 days - 15 months
